# test.target: T1, recombinant LILRB1 (human, UniProt Q8NHL6 24-461)
# T1 construct: LILRB1-Fc proteins were also made; also called LILRB1 recombinant proteins
# T1 sequence (Q8NHL6 24-461 limits assumed): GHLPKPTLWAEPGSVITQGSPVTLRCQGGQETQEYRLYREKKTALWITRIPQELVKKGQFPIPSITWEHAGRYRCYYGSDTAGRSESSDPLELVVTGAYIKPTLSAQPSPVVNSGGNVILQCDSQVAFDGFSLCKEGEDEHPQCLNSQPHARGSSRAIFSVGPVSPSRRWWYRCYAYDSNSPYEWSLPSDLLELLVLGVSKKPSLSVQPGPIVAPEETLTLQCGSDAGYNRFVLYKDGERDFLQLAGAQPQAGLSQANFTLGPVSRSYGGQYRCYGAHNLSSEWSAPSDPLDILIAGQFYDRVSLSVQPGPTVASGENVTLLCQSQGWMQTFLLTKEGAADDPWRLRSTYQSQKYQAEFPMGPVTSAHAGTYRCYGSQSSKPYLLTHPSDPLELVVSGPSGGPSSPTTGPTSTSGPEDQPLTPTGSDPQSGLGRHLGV
# experiment.description: BLI (Octet RED96), antibody on biosensor, recombinant LILRB1 in solution;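 further: Background-subtracted sensorgrams fitted with a one-to-one binding model, KD taken as koff over kon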
pKd: −log10 of the molar value.
Each item that follows carries a reported pKd.

{"binder": "B1-#173-2 (antibody, V domains shown, recombinant rabbit IgG) VH: QSVEESGGDLVKPGASLTLTCTASGFDFSSNAYLCWVRQAPGKGLEWIGCIYDGTSGDTYYANWAKGRFTISRSSSTTVTLQMTSLTAADTATYFCARDTRSSNYYFNLWGPGTLVTISS VL: ELVLTQTPSSTSAAVGGTVTINCQASQSVDNNKQLSWYQQKPGQPPKQLIYSASKLASGVPSRFKGSGSGTQFTLTISDLECDDAATYYCAGYYYSGSATDAWAFGGATEVEIN", "pKd": 8.86}
{"binder": "B1-#41-1 (antibody, V domains shown, recombinant rabbit IgG) VH: QSVKESGGDLVKPGASLTLTCTASGFSFSSSYWICWVRQAPGKGLEWIACIYAGSSGSTYYASWAKGRFTISKTSSTTVTLQMTSLTAADTATYFCARSTSGSYGAGLGLWGPGTLVTISS VL: ELDMTQTASPVSGAVGGTVTIKCQASQNIYNNIGWYQQKPGQPPNLLIYGPSYLASGVPSRFKGSRSGTEYTLTISDLECADAATYYCQSDDWMSISPDIVFGGGTEVEIK", "pKd": 7.80}
{"binder": "B1-#3 (antibody, V domains shown, recombinant rabbit IgG) VH: QSLEESEGDLVKPEGSLTLTCKASGFDFSSDAMCWVRQAPGKGLEWIGCIYNGDEITDHASWAKGRFTISKTSPTTVTLQMTSLTVADTATYFCARAVYSDGGAGYPYMYGMDLWGPGTLVTVSS VL: ELDMTQTPASVEAAVGGTVTIKCQASQNIYSYLVWYQQKPGQPPKLLISKASTLASGVSSRFKGSGSGTEFTLTINDLECADAATYYCQTNYFSSTSHFGVFTFGGGTELEIK", "pKd": 9.30}
{"binder": "B1-#22 (antibody, V domains shown, recombinant rabbit IgG) VH: EQSLEESGGGLVKPGASLTLTCKASGFDFSSNDYMCWVRQAPGKGLEWIGCIYGGDGHTYYATWAKGRFTISKASSTTVTLQMTSLTAADTASYFCARGYSYGDTGYADAILTLDLWGPGTLVTVSS VL: ELDLTQTPASVEAAVGGTVTIKCQASQTIGSYLSWYQQKPGQRPKLLIYEASKLASGVPSWFKGSGSGTEFTLTISDLECADAATYYCQSNYYRAGGNYGGAFGGGTEVEIK", "pKd": 9.21}
{"binder": "B1-#178-2 (antibody, V domains shown, recombinant rabbit IgG) VH: QKQLVESGGGLVQPEGSLALTCTASGFSFSSSYWICWVRQAPGKGLEWIACIYAGSSGSTYYASWVNGRFTVFKTSSTTVTLQMTSLTAADTATYFCARGGTSYRLDLWGPGTLVTVSS VL: ELVLTQTPSSKSVAVGDTVTINCQASDNVYSNNYTSWFQQKPGQPPKQLLYYAAYRASGVPSRFKGSGSGTEFTLSISDVVCDDAATYYCSGHKDYSDDGSTFGGGTEVEIK", "pKd": 8.80}

Ref: patent US12723078
